These data points were gathered from patent EP4567035A1.

Catalogue of DC50 values
molecular target: HIF-1α (Homo sapiens); construct: endogenous in cells; host or cells: ARPE-19 (ATCC CRL-2302); assay: Analysis of HIF-1α protein expression (Western blot) in ARPE-19 cells under mixed hypoxic condition; type: cell-based; details: values marked * in the table, mixed hypoxic condition (1% oxygen + CoCl2) for 24 hours, concentration range at which HIF-1α expression is reduced by 50% vs untreated control, read-out: IC50 HIF-1α, Hypoxia(24h)

Compound: O=C(NCc1cc(F)cc(-c2cnn(-c3cc[s+]([O-])c3)c2)c1)c1ncnc2nc(C3CCCC3)[nH]c12 (stereo not shown)
Recorded measurement: 1 to 10 µM
--
Compound: O=C(NCCc1cccc(-c2cnn(-c3ccc(F)cc3)c2)c1)c1ncnc2nc(C3CCCC3)[nH]c12
Recorded measurement: 0.1 to 1 µM
--
Compound: O=C(NCc1cccc(-c2cnn(-c3ccc(F)cc3)c2)c1F)c1ncnc2nc(C3CCCC3)[nH]c12
Recorded measurement: 0.1 to 1 µM
--
Compound: O=C(O)c1ccc(Nc2cc(F)cc(CNC(=O)c3ncnc4nc(C5CCCC5)[nH]c34)c2)cc1
Recorded measurement: 0.1 to 1 µM

Quick check: DC50 of O=C(NCc1cc(F)cc(-c2nnc(-c3ccc(F)cc3)o2)c1)c1ncnc2nc(C3CCCC3)[nH]c12 ? 1 to 10 µM

Quick check: DC50 of O=C(NCc1cc(F)cc(-c2cnn(-c3ccoc3)c2)c1)c1ncnc2nc(C3CCCC3)[nH]c12 ? < 0.1 µM

* * *

Catalogue of DC50 values
target: HIF-1α (Homo sapiens); construct: endogenous in cells; host or cells: ARPE-19 (ATCC CRL-2302); assay: Analysis of HIF-1α protein expression (Western blot) in ARPE-19 cells under mixed hypoxic condition; type: cell-based; settings: values marked * in the table, mixed hypoxic condition (1% oxygen + CoCl2) for 24 hours, concentration range at which HIF-1α expression is reduced by 50% vs untreated control, read-out: IC50 HIF-1α, Hypoxia(24h)

Some compounds with recorded DC50:
Compound: O=C(NCc1cc(F)cc(-c2cnn(-c3cnn(Cc4ccccc4)c3)c2)c1)c1ncnc2nc(C3CCCC3)[nH]c12
Endpoint label: DC50
Recorded measurement: < 100 nM
--
Compound: O=C(NCc1cc(Cl)cc(-c2cnn(-c3ccc(F)cc3)c2)c1)c1ncnc2nc(C3CCCC3)[nH]c12
Endpoint label: DC50
Recorded measurement: < 100 nM
--
Compound: COC(=O)C1CC(c2nc3ncnc(C(=O)NCc4cc(F)cc(-c5cnn(-c6ccc(F)cc6)c5)c4)c3[nH]2)C1 (single isomer, unassigned) [103(A)]
Endpoint label: DC50
Recorded measurement: > 10000 nM
--
Compound: Cn1cc(-n2cc(-c3cc(F)cc(CNC(=O)c4ncnc5nc(C6CCCC6)[nH]c45)c3)cn2)cn1
Endpoint label: DC50
Recorded measurement: < 100 nM
--
Compound: O=C1CC[C@@H](c2nc3ncnc(C(=O)NCc4cc(F)cc(-c5cnn(-c6ccc(F)cc6)c5)c4)c3[nH]2)C1
Endpoint label: DC50
Recorded measurement: 100 to 1000 nM
--
Compound: O=C(NCc1cc(F)cc(-c2cnn(-c3ccc(F)nc3)c2)c1)c1ncnc2nc(C3CCCC3)[nH]c12
Endpoint label: DC50
Recorded measurement: < 100 nM
--
Compound: [2H]c1c([2H])c([2H])c(-n2cc(-c3cc(F)cc(CNC(=O)c4ncnc5nc(C6CCC(F)(F)C6)[nH]c45)c3)cn2)c([2H])c1[2H] (stereo not drawn)
Endpoint label: DC50
Recorded measurement: < 100 nM
--
Compound: N#Cc1ccc(-n2cc(-c3cc(F)cc(CNC(=O)c4ncnc5nc(C6CCCC6)[nH]c45)c3)cn2)cc1
Endpoint label: DC50
Recorded measurement: < 100 nM
--
Compound: NC(=O)c1ccc(-n2cc(-c3cc(F)cc(CNC(=O)c4ncnc5nc(C6CCCC6)[nH]c45)c3)cn2)cc1
Endpoint label: DC50
Recorded measurement: < 100 nM
--
Compound: O=C(NCc1cc(F)cc(NC2CCCC2)c1)c1ncnc2nc(C3CCCC3)[nH]c12
Endpoint label: DC50
Recorded measurement: 100 to 1000 nM

Attention now turns to another entry.
Quick check: DC50 of O=C(NCc1cc(F)cc(-c2cnn(-c3ccc(F)cc3)c2)c1)c1ncnc2nc(C3CCC(F)C3)[nH]c12 (single isomer, unassigned) [110(B)] ? < 100 nM

* * *

biological target: HIF-1α (Homo sapiens); construct: endogenous in cells; host or cells: ARPE-19 (ATCC CRL-2302); test: Analysis of HIF-1α protein expression (Western blot) in ARPE-19 cells under mixed hypoxic condition; assay type: cell-based; settings: mixed hypoxic condition (1% oxygen + CoCl2) for 1 hour, concentration range at which HIF-1α expression is reduced by 50% vs untreated control, read-out: IC50 HIF-1α Hypoxia (1 hour)
Endpoint label: DC50

Some molecules with recorded DC50:
Smiles string: Cn1cc(C(=O)Nc2cc(F)cc(CNC(=O)c3ncnc4nc(C5CCCC5)[nH]c34)c2)cn1
DC50: 100 to 1000 nM

Smiles string: O=C(NCc1cc(F)cc(-c2cnn(-c3ccccc3)c2)c1)c1ncnc2nc(C3CCCC3)[nH]c12
DC50: < 100 nM

Smiles string: COc1cccc(Nc2cc(F)cc(CNC(=O)c3ncnc4nc(C5CCCC5)[nH]c34)c2)c1
DC50: < 100 nM

Quick check: DC50 of COc1ccc(Nc2cc(F)cc(CNC(=O)c3ncnc4nc(C5CCCC5)n(C)c34)c2)cc1 ? < 100 nM

* * *

Catalogue of DC50 values
biological target: HIF-1α (Homo sapiens, UniProt Q16665); construct: endogenous in cells; host or cells: ARPE-19 (ATCC CRL-2302); assay: Analysis of HIF-1α protein expression (Western blot) in ARPE-19 cells under mixed hypoxic condition; assay type: cell-based; settings: mixed hypoxic condition (1% oxygen + CoCl2) for 1 hour, concentration range at which HIF-1α expression is reduced by 50% vs untreated control, read-out: IC50 HIF-1α Hypoxia (1 hour)
Sequence (Q16665 whole entry): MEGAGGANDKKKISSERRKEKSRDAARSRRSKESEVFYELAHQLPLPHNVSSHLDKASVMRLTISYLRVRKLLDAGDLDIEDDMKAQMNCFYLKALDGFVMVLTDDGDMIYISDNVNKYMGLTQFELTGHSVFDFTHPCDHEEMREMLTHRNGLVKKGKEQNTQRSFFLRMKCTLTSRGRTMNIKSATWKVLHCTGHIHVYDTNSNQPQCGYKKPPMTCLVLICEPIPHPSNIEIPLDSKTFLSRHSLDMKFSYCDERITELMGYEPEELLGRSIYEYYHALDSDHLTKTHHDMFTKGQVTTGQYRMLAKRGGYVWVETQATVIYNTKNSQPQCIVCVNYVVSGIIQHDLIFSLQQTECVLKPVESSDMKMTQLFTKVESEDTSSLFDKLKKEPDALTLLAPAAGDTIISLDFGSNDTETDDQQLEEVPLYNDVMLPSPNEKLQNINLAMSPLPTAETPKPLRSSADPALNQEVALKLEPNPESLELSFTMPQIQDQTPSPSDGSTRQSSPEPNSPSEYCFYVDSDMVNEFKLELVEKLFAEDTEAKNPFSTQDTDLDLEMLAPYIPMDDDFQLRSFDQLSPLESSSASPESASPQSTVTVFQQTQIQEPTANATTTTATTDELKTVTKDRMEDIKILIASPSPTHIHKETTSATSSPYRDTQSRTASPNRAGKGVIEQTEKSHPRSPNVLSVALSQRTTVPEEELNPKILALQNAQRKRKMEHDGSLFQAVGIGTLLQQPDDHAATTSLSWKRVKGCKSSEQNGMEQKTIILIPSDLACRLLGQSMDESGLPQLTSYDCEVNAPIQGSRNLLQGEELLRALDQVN
Where a name gives a salt, the structure may show the parent alone.

Some compounds with recorded DC50:
Compound: O=C(O)c1ccc(-n2cc(-c3cc(F)cc(CNC(=O)c4ncnc5nc(C6CCCC6)[nH]c45)c3)cn2)cc1 [Example 54]
Recorded measurement: < 100 nM
--
Compound: O=C(NCc1cc(F)cc(-c2cnn(Cc3ccccc3)c2)c1)c1ncnc2nc(C3CCCC3)[nH]c12 [Example 9]
Recorded measurement: < 100 nM

Quick check: DC50 of O=C(NCc1cc(F)cc(Nc2ccccc2)c1)c1ncnc2nc(C3CCCC3)[nH]c12 [Example 15] ? < 100 nM

Quick check: DC50 of O=C(NCc1cc(F)cc(-c2cnn(-c3ccc(C(F)(F)F)nc3)c2)c1)c1ncnc2nc(C3CCCC3)[nH]c12 [Example 44] ? < 100 nM

Quick check: DC50 of C[Si](C)(C)CCOCn1c(C2CCCC2)nc2ncnc(C(=O)NCc3cc(F)cc(-c4cnn(-c5cccc(C#N)c5)c4)c3)c21 [Example 22] ? 100 to 1000 nM

Quick check: DC50 of COc1ccc(Nc2cc(F)cc(CNC(=O)c3ncnc4nc(C5CCCC5)[nH]c34)c2)cc1 [Example 35] ? < 100 nM

Quick check: DC50 of O=C(NCc1cc(F)cc(-c2cnn(-c3ccc(I)cn3)c2)c1)c1ncnc2nc(C3CCCC3)[nH]c12 [Example 48] ? < 100 nM

Quick check: DC50 of O=C(NCc1cc(F)cc(Nc2ccncc2)c1)c1ncnc2nc(C3CCCC3)[nH]c12 [Example 16] ? < 100 nM

Quick check: DC50 of Cn1cc(-c2cc(F)cc(CNC(=O)c3ncnc4nc([C@@H]5CCCN5)[nH]c34)c2)cn1 [Example 62, hydrochloride] ? 1000 to 10000 nM

Quick check: DC50 of O=C(NCc1cc(F)cc(-c2cnn(-c3cncnc3)c2)c1)c1ncnc2nc(C3CCCC3)[nH]c12 [Example 32] ? < 100 nM

Quick check: DC50 of CS(=O)(=O)c1ccc(Cn2cc(-c3cc(F)cc(CNC(=O)c4ncnc5nc(C6CCCC6)[nH]c45)c3)cn2)cc1 [Example 24] ? < 100 nM

Quick check: DC50 of O=C(NCc1cc(F)cc(-c2cn[nH]c2)c1)c1ncnc2nc(C3CCCC3)[nH]c12 [Example 11] ? < 100 nM

Quick check: DC50 of Cn1cc(-c2cc(F)cc(CNC(=O)c3ncnc4nc(C5CCNC5)[nH]c34)c2)cn1 (stereo not drawn) [Example 76, hydrochloride] ? 1000 to 10000 nM

Quick check: DC50 of CN(C)c1ccc(Nc2cc(F)cc(CNC(=O)c3ncnc4nc(C5CCCC5)[nH]c34)c2)cc1 [Example 18] ? < 100 nM

Quick check: DC50 of O=C(NCc1cc(F)cc(-c2ccco2)c1)c1ncnc2nc(C3CCCC3)[nH]c12 [Example 39] ? 100 to 1000 nM
